Values were extracted from the RNAGym collection of RNA variant scans (doi:10.1093/molbev/msab373).

// values below are reported reverse-splicing fitness
B1: Azoarcus group I ribozyme (parent)
chain: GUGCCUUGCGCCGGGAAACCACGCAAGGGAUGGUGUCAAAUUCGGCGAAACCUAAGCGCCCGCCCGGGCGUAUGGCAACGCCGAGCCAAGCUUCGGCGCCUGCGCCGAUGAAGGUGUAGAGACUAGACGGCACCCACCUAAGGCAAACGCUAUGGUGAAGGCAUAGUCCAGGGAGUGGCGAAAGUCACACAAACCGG

- Variants of: B1
- test method notes: reverse-splicing fitness (ratio to wild type); higher = more active; in vitro selection; Mg2+ level not given
Could you keep your reply to the number by itself?

// below: answered variants
>>> reported("A120U C150G C169U")
0.0339
>>> reported("A111C A120C C150G C169A U176A")
0.00884
>>> reported("C82G A145G C150G C169G")
0.00848

## Task Param item = C82A A111G A120C A145C C150G C169G U176A ; retrieve measured reverse-splicing fitness.
## Result 0.00979

## Task Param item = C82A A111G A120G A145U C150G C169G U176C ; retrieve measured reverse-splicing fitness.
## Result 0.00461

## Task Param item = A111C A120G C150G C169U U176C ; retrieve measured reverse-splicing fitness.
## Result 0.0154

## Task Param item = C82A A111C A120C C150U C169U ; retrieve measured reverse-splicing fitness.
## Result 0.0115

## Task Param item = C82A A111C A120C A145G C169A U176G ; retrieve measured reverse-splicing fitness.
## Result 0.00684
